# TEST_METHOD_NOTES: inhibitors of mutant huntingtin aggregation, primary screen, imaging, exon1htt(103Q)mCFP cells, high-content imaging (AID 483);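 note: compound exposure lasted 3 days before fixation; percent of the per-plate median nuclei count of sample wells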
# MEASUREMENT_CONTEXT: exon1htt(103Q)mCFP cell line, aggregate imaging, at 2 µM; measured here: cell count, toxicity
MEASUREMENT_NAME: nuclei count (%)

>>> value("CCOC(=O)c1oc2ccccc2c1NC(=O)COC")
92.3
>>> value("O=S(=O)(Nc1ccc2c(c1)OCO2)c1ccc(Br)s1")
92.9
>>> value("CC1=C(C(=O)N2CCCCC2)C(c2cccs2)C2=C(CCCC2=O)N1 (stereo unspecified)")
95.9
>>> value("Cc1ccc(-n2ncc(C(=O)N3CCc4ccccc4C3)c2NC(=O)c2ccco2)cc1C")
100
>>> value("Cc1ccc(-n2cnnn2)c2cccnc12")
104
>>> value("c1ccc(OCCCn2nnc(-c3cccnc3)n2)cc1")
95.2
>>> value("CCOc1ccccc1NC(=O)NC1CCN(CC(=O)Nc2ccc3c(c2)OCCO3)CC1")
115
>>> value("Nc1nc2n(n1)C(c1cccc(Br)c1)CC(c1ccc(F)cc1)N2 (stereo unspecified)")
110
>>> value("O=C(NCc1ccccn1)c1cc(-n2cnnc2)ccc1Cl")
112
>>> value("CCOc1ccc2[nH]c(=O)c(C(c3nnnn3Cc3ccco3)N3CCC(C)CC3)cc2c1 (stereo unspecified)")
97.1
>>> value("O=C(COC(=O)CSc1nnc(-c2ccc(Cl)cc2)o1)NCc1ccc2c(c1)OCO2")
123

----------
# TESTED_TARGET: Voltage-gated potassium channel subunit beta-2 (Rattus norvegicus)
# TEST_METHOD_NOTES: KvBeta enzyme negative modulators, primary screen, biochemical, NADPH fluorescence (AID 622);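 note: slope of raw intensity against log time taken from 70 to 1610 s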
# MEASUREMENT_CONTEXT: recombinant KvBeta, 4-cyanobenzaldehyde reduction, at 10 µM, stronger effect = higher value
Overview of recorded fluorescence slope for various compounds
MEASUREMENT_NAME: fluorescence slope

>>> value("CC(C)(C)Nc1nc(NC(C)(C)C)nc(-n2ccnc2)n1")
-0.443
>>> value("Cn1ccnc1C(O)c1ccc(OCc2ccccc2)cc1 (stereo not drawn)")
-0.487
>>> value("CC(NC(=O)C1CCCN(S(=O)(=O)c2cccs2)C1)c1ccccc1 (stereo not drawn)")
-0.583
>>> value("O=C(c1cc2ccccc2oc1=O)N1CCN(c2ccc(N3CCOCC3)nn2)CC1")
-0.603
>>> value("CCOC(=O)c1ccc(N2C(=O)CC(N3CCN(C/C=C/c4ccccc4)CC3)C2=O)cc1 (stereo not drawn)")
-0.39
>>> value("COC(=O)C1CCN(c2nc3ccccc3nc2C(C#N)C(=O)NCCc2ccccc2)CC1 (stereo not drawn)")
-0.356
>>> value("COC(=O)C1=C(C)n2nnnc2NC1c1ccc(Cl)cc1 (stereo not drawn)")
-0.367
>>> value("COc1ccccc1-c1nnc2n1N=C(c1ccc(O)c(O)c1)CS2")
-0.429
>>> value("c1ccc2c(c1)CCN(c1ncnc3c1[nH]c1ccccc13)C2")
-0.388
>>> value("Cn1c(=O)c2c(nc(Br)n2CCSc2nnnn2-c2ccccc2)n(C)c1=O")
-0.36
>>> value("CC(C)c1nc(NCCN2CCOCC2)c(C#N)c2c1COC(C)(C)C2")
-0.473
>>> value("O=C(/C=N/O)NCCCN1CCOCC1")
-0.477
>>> value("O=C(CSc1nc(N2CCCCC2)nc(N2CCCCC2)n1)Nc1nccs1")
-0.531
>>> value("c1ccc(CCn2nnnc2C(c2cccs2)N2CCOCC2)cc1 (stereo not drawn)")
-0.488
>>> value("CSc1nc(C)c(C(=O)Nc2ccccc2)c(C)c1C#N")
-0.483
>>> value("O=C1CC(c2ccccc2)Cc2nc(N3CCc4ccccc43)ncc21 (stereo not drawn)")
-0.0564
>>> value("COc1c(Br)cc2c(C)c(C(=O)O)oc2c1Br")
-0.443
>>> value("CCc1nnc(NC(=O)COC(=O)CN2C(=O)c3ccccc3C2=O)s1")
-0.53
>>> value("CCS(=O)(=O)N1CCCC(c2nc(-c3cccc(OC)c3)no2)C1 (stereo not drawn)")
-0.535
>>> value("COc1cc(/C=N/n2nnnc2N)ccc1O")
-0.448
>>> value("Cn1c(=O)c2nc(Cl)n(Cc3ccc(Cl)cc3Cl)c2n(C)c1=O")
-0.514
>>> value("Cc1cc(=O)n2nc(-c3ccccc3)sc2n1")
-0.421
>>> value("COc1cc(NC2c3ccccc3C(=O)N2c2ccc(C)cn2)cc(OC)c1OC (stereo not drawn)")
-0.593
